Organism: Rattus norvegicus
MEASUREMENT DESCRIPTION: Compound was evaluated for the percentage of acute inhibition of cholesterol synthesis (AICS) in male rats through peroral rout.
Format: functional
Set-up: concentration or dose not given beside the values
Short version: Inhibition at least 60% is Fulfilled, less is Not fulfilled.

CC[C@H](C)C(=O)O[C@H]1CCC=C2C=C[C@H](C)[C@H](CC[C@@H]3C[C@@H](O)CC(=O)O3)[C@H]21 [MEVASTATIN] : Not fulfilled
CN(C)c1nc2ccccc2c(-c2ccc(F)cc2)c1/C=C/[C@@H]1C[C@@H](O)CC(=O)O1 : Not fulfilled
CC(C)c1c(/C=C/[C@@H]2C[C@@H](O)CC(=O)O2)c(-c2ccc(F)cc2)c2cc(F)ccc2[n+]1[O-] : Not fulfilled
CC(C)c1nc2ccccc2c(-c2ccc(F)cc2)c1/C=C/[C@@H]1C[C@@H](O)CC(=O)O1 : Fulfilled
CC(C)c1nc2ccc(F)cc2c(-c2ccc(F)cc2)c1/C=C/[C@@H]1C[C@@H](O)CC(=O)O1 (stereo in doubt; 17) : Fulfilled
CC[C@H](C)C(=O)O[C@H]1C[C@@H](C)C=C2C=C[C@H](C)[C@H](CC[C@@H]3C[C@@H](O)CC(=O)O3)[C@H]21 [LOVASTATIN] : Fulfilled
Cc1cnc2ccccc2c1/C=C/[C@@H]1C[C@@H](O)CC(=O)O1 : Not fulfilled
Cc1nc2ccc(Cl)cc2c(-c2ccc(F)cc2)c1/C=C/[C@@H]1C[C@@H](O)CC(=O)O1 : Not fulfilled
CC(C)c1nc2ccc(F)cc2c(-c2ccc(F)cc2)c1/C=C/[C@@H]1C[C@@H](O)CC(=O)O1 (stereo in doubt; 8d) : Fulfilled

Values were extracted from ChEMBL document CHEMBL1125871.
